Ref: PubChem BioAssay

- Test system: PRMT1 (protein arginine N-methyltransferase 1)
- protocol_text: PRMT1 binders on small-molecule microarrays, primary screen, biochemical, small-molecule microarray, 635 nm fluorescence (AID 1088);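 note: binding of Prmt1 protein to compounds spotted on small-molecule microarray slides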
- condition_summary: small-molecule microarray binding, higher = more signal
Please use TRUE whenever composite z-score is not below 0.1, and FALSE whenever it is.

| structure_smiles | group |
| --- | --- |
| CCOC(=O)NN=C1C[C@@H](O)[C@@H](O)[C@@H]2[C@@H]3C(=O)N(c4cccc(Oc5ccccc5)c4)C(=O)[C@@H]3CC[C@@H]12 | FALSE |
| COC(=O)CC=C[C@@H](C)[C@@H](C=NOC[C@@H](O)[C@H]1O[C@@H]2OC(C)(C)O[C@@H]2[C@H]1O)NS(=O)(=O)c1ccc(C)cc1 | TRUE |
| COc1ccc(O[C@H]2C=C[C@@H](c3ccccc3)O[C@@H]2CON=CC[C@@H]2C=C[C@H](OC(C)=O)[C@@H](COC(C)=O)O2)cc1 | TRUE |
| COC(=O)CC=C[C@@H](C)[C@@H](C=NOC[C@H]1O[C@H](c2ccccc2)C=C[C@@H]1Oc1ccc(OC)cc1)OC | FALSE |
| COC(=O)CC=C[C@@H](C)[C@@H](C=NOC[C@H]1O[C@H](c2ccccc2)C=C[C@@H]1Oc1ccc(OC)cc1)NS(=O)(=O)c1ccc(C)cc1 | FALSE |
| COCOc1ccc(Br)cc1C(=O)[C@@H]1O[C@H]1c1cccc(OC)c1 | FALSE |
| CO[C@@H]1COC(=O)[C@H](CCSC)NC(=O)CC=C[C@@H](C)COC(=O)[C@H](C)NC(=O)CC=C[C@H]1C | TRUE |

* * *

Listing of recorded z-score by entry.
- protocol_text: basal 3T3-L1 adipocyte mitochondrial potential changes, profiling panel, cell-based, JC-1 fluorescence, 3T3-L1 adipocytes, 24 h, 100 nL compound (AID 1168); note: test concentration not given here
- condition_summary: JC-1 mitochondrial fluorescence, higher = more signal, called active from +8 up or from −8 down

| compound | z-score |
| --- | --- |
| COC(=O)C=CCCc1coc(C=CCNC(=O)OC)n1 | -0.944 |
| CCCCC#C[C@@H]1C=C[C@H](OC(C)=O)[C@@H](COC(C)=O)O1 | 0.378 |
| COc1ccc(O[C@H]2C=C[C@@H](c3ccccc3)O[C@@H]2COC(=O)CCC(C)=NOC(C)CN2CCCc3nc(C)c(C)cc32)cc1 (some centres not stated) | -0.0369 |
| CC(CCN1CCCCc2nc(C)c(C)cc21)=NOC[C@@H](O)COCc1ccco1 | -1.47 |
| CC(C)=CCCC(C)=CCON=C1C[C@@H](O)[C@@H](O)[C@@H]2[C@@H]3C(=O)N(c4ccc(F)cc4F)C(=O)[C@@H]3CC[C@@H]12 | -1.28 |
| C=CC1=C[C@H](O)[C@@H]2O[C@@H]2C12OCCCO2 | -0.729 |
| O=C(NN=C1C[C@@H](O)[C@@H](O)[C@@H]2[C@@H]3C(=O)N(Cc4ccccc4)C(=O)[C@@H]3CC[C@@H]12)OCc1ccccc1 | 0.806 |
| CCO[C@H](c1cc(OC)cc([N+](=O)[O-])c1OC)[C@H](C)C=CCC(=O)OC | 0.269 |
| Cc1cc2c(nc1C)CCCN2CC(O)CN1CCCc2nc(C)c(C)cc21 | -0.414 |
| CO[C@H]1COC(=O)[C@@H](C)COC(=O)[C@H](COCc2ccccc2)NC(=O)CC=C[C@H]1C | -0.213 |
| CCOC(=O)[C@H](Cc1ccccc1)NC(=O)CCC1CC(OC(=O)NCc2cccc3ccccc23)CC2(CCCC(COC(=O)NCCC(C)C)O2)O1 (some centres not stated) | -0.133 |
| CO[C@H]1COC(=O)CC=C[C@H](C)[C@@H](OC)COC(=O)[C@@H](C)COC(=O)CC=C[C@@H]1C | 0.673 |
| COC(=O)CC=C[C@@H](C)[C@@H](C=NO[C@@H](C)c1cn([C@H](CO)Cc2ccccc2)nn1)OC | 1.08 |
| COC(=O)C1=C(C)N(Cc2ccccc2)[C@]23O[C@](C(=O)OC)(C(=O)N2[C@@H]1c1ccccc1)C(C(=O)OC)=C3C(=O)OC | 0.725 |
| COc1cccc([C@@H]2Oc3ccc(OC)cc3C(=O)[C@H]2O)c1 | -0.0174 |
| O=C1[C@H]2[C@H]3[C@H](O)[C@H](O)CC(=NOCc4ccccc4)[C@@H]3CC[C@H]2C(=O)N1C[C@@H]1CCCO1 | 0.577 |
| O=C1C[C@@H](O)[C@@H](O)[C@@H]2[C@@H]3C(=O)N(c4cccc(Oc5ccccc5)c4)C(=O)[C@@H]3CC[C@H]12 | -1.02 |

* * *

- tgt: Torsin-1A (Homo sapiens)
- protocol_text: torsin A binders from cell lysate, primary screen, small-molecule microarray, wild-type, 635/667 nm (AID 1149)
- condition_summary: COS7 hTOR1A-WT lysate, 635 nm fluorescence, higher = more signal
test_readout: composite z-score

| compound | endpoint_value |
| --- | --- |
| CCCCC#C[C@@H]1C=C[C@H](Oc2ccc(C(=O)OC)cc2)[C@@H](COC(=O)OCC)O1 | 0.346 |
| CO[C@H]1COC(=O)[C@@H]2CCCN2C(=O)CC=C[C@@H](C)[C@H](OC)COC(=O)[C@@H](OCc2ccccc2)C=C[C@@H]1C | 1.32 |
| CO[C@@H]1C=CCC(=O)N2CCC[C@H]2C(=O)OC[C@@H](C)C(=O)OC[C@H]1C | -0.0067 |
| CC(C)(C)N1C(=O)[C@H]2[C@H]3[C@H](O)[C@H](O)CC(=O)[C@@H]3CC[C@H]2C1=O | 0.236 |
| CC(CCN1CCCCc2nc(C)c(C)cc21)=NOC[C@@H](C)[C@H](OCc1ccccc1)C(C)C | -1.62 |
| Cn1c(=O)n2n(c1=O)[C@H]1[C@H](O)[C@@H]3O[C@@H]3C(=O)[C@H]1CC2 | 0.961 |
| COc1ccc(O[C@H]2C=C[C@@H](c3ccccc3)O[C@@H]2COC(=O)CCC(C)=NO[C@@H]2O[C@H](COC(C)=O)[C@@H](OC(C)=O)[C@H](OC(C)=O)[C@H]2OC(C)=O)cc1 | 0.495 |
| CO[C@H]1COC(=O)CCC[C@@H](C)[C@H](OC)COC(=O)[C@@H]2CCCN2C(=O)CC=C[C@@H]1C | 2.64 |
| C[C@@H]1NC(=O)[C@@H](C)COC(=O)[C@H](C)NC(=O)[C@@H](C)COC1=O | 0.179 |
| COc1ccc(C#C[C@@H]2C=C[C@H](OC(C)=O)[C@@H](COC(C)=O)O2)cc1 | 0.244 |
| CC(C)=CCCC(C)=CCON=C1C[C@@H](O)[C@@H](O)[C@@H]2[C@@H]3C(=O)N(c4ccc(F)cc4F)C(=O)[C@@H]3CC[C@H]12 | -0.37 |
| CON=C1[C@H]2CCn3c(=O)n(-c4ccccc4)c(=O)n3[C@H]2[C@H](O)[C@@H]2O[C@H]12 | 0.144 |
| C[C@@H](ON=C1[C@H]2CCn3c(=O)n(-c4ccccc4)c(=O)n3[C@H]2[C@H](O)[C@@H]2O[C@H]12)c1cn([C@@H]2COC[C@H]2O)nn1 | 0.436 |
| CCN1C(=O)[C@H]2[C@H]3[C@H](O)[C@H](O)CC(=O)[C@H]3CC[C@H]2C1=O | 1.06 |
| CC(C)CON=C1C[C@@H](O)[C@@H](O)[C@@H]2[C@@H]3C(=O)N(C4CCCCC4)C(=O)[C@@H]3CC[C@@H]12 | -0.792 |
| CCOC(=O)NN=C1C[C@@H](O)[C@@H](O)[C@@H]2[C@@H]3C(=O)N(C(C)(C)C)C(=O)[C@@H]3CC[C@H]12 | 0.446 |
| O=C1[C@H]2[C@H]3[C@H](O)[C@H](O)CC(=NOCc4ccccc4)[C@@H]3CC[C@H]2C(=O)N1C[C@@H]1CCCO1 | 0.304 |
| COc1ccc(COC(=O)NN=C2C[C@@H](O)[C@@H](O)[C@@H]3[C@@H]4C(=O)N(C5CCCCC5)C(=O)[C@@H]4CC[C@H]23)cc1 | -0.0324 |
| CC(C)[C@@H](OCc1ccccc1)[C@H](C)C=NOC[C@@H](O)COCc1ccco1 | -0.712 |
| CC1O[C@H]2C3=C(C(=O)[C@@H]4O[C@@H]4[C@H]3O)[C@@H]1C1[C@@H](C)OC=C3[C@H](O)C4O[C@@H]4C(=NOCc4ccccc4)[C@]312 (stereo not given in full) | 1.66 |
| CCOC(=O)NN=C1C[C@@H](O)[C@@H](O)[C@@H]2[C@@H]3C(=O)N(c4ccc(F)cc4F)C(=O)[C@@H]3CC[C@@H]12 | 0.308 |
| CO[C@@H]1COC(=O)[C@@H](C)NC(=O)CC=C[C@@H](C)[C@H](NS(=O)(=O)c2ccc(C)cc2)COC(=O)[C@H](C)NC(=O)CC=C[C@H]1C | 1.31 |
| COC(=O)CC=C[C@@H](C)[C@@H](C=NO[C@@H](C)c1cn([C@H](CO)Cc2ccccc2)nn1)NS(=O)(=O)c1ccc(C)cc1 | 0.945 |
| COC(=O)C=CCCc1coc(C=CCNC(=O)OC)n1 | 0.583 |
| CCOC(=O)[C@H](CC(C)C)NC(=O)CCC1CC(OC(=O)NCc2cccc3ccccc23)CC2(CCCC(COC(=O)NCCCN3CCCC3=O)O2)O1 (stereo not given in full) | 0.316 |
| CC(C)=CCCC(C)=CCON=C1C[C@@H](O)[C@@H](O)[C@@H]2[C@@H]3C(=O)N(c4cccc(Oc5ccccc5)c4)C(=O)[C@@H]3CC[C@@H]12 | -0.38 |
| CC(=O)Nc1ccc([C@@H]2N[C@H](C(=O)O)CC[C@H]2C)cc1 | 0.746 |
| CCOC(=O)[C@H](Cc1ccccc1)NC(=O)CCC1CC(OC(=O)NCCc2ccc(F)cc2)CC2(CCCC(COC(=O)NCCCN3CCCC3=O)O2)O1 (stereo not given in full) | 0.144 |
| CO[C@@H]1C=CCC(=O)N[C@@H](C)C(=O)OC[C@@H](OC)[C@H](C)CCCC(=O)OC[C@H]1C | 3.16 |
| CCOC(=O)[C@H](Cc1ccccc1)NC(=O)CCC1CC(OC(=O)NCCc2ccc(F)cc2)CC2(CCCC(COC(=O)NCC3CCCCC3)O2)O1 (stereo not given in full) | 0.846 |
